Quick list: MIC90 per entry.
- Tested on: Mycobacterium tuberculosis H37Rv
- test-description: Minimum inhibitory concentration (MIC90) against Mycobacterium tuberculosis H37Rv, Middlebrook 7H9, 96-well plate, 15 days
- Assay type: cell-based
- cond: Mycobacterium tuberculosis, H37RV, 360 h, Mycobacterium tuberculosis H37Rv, 15 days of incubation, 90% inhibition of growth, visual reading
Structures can show the parent of a compound that is named as a salt.
Quick reminder: number only, in µg/mL, skip the unit.

[2H]c1c(O)c(C([2H])([2H])N2CCC([2H])(C([2H])(O)C([2H])([2H])CC)CC2)c2c3c(oc2c1[2H])-c1ccc(O)cc1C([2H])([2H])OC3=O (stereo not drawn) [YF048, hydrochloride] = 0.0156

Entry under test: [2H]c1c(O)c(C([2H])([2H])N2C([2H])([2H])CC(C([2H])(O)CCC)CC2([2H])[2H])c2c3c(oc2c1[2H])-c1ccc(O)cc1C([2H])([2H])OC3=O (stereo not drawn) [YF046, hydrochloride] . Its MIC90 was 0.0156

* * *

- Tested on: Mycobacterium tuberculosis H37Rv
- test-description: Minimum inhibitory concentration (MIC90) against Mycobacterium tuberculosis H37Rv, Middlebrook 7H9, 96-well plate, 15 days
- Format: cell-based
- cond: H37RV, 360 h
Quick list: MIC90 per entry.
Quick reminder: number only, in µg/mL, skip the unit.

The examples below pair each entry with its known result.
[2H]c1c(O)c(C([2H])([2H])N2C([2H])([2H])CC(C([2H])(O)CCC)CC2([2H])[2H])c2c3c(oc2c1[2H])-c1ccc(O)cc1C([2H])([2H])OC3=O (stereo not shown) = 0.0156
[2H]c1c(O)c(C([2H])([2H])N2CCC([2H])(C([2H])(O)C([2H])([2H])CC)CC2)c2c3c(oc2c1[2H])-c1ccc(O)cc1C([2H])([2H])OC3=O (stereo not shown) = 0.0156
[2H]c1c(O)c(C([2H])([2H])N2C([2H])([2H])CC(C(O)CCC)CC2([2H])[2H])c2c3c(oc2c1[2H])-c1ccc(O)cc1C([2H])([2H])OC3=O (stereo not shown) = 0.0156

Switching to the query record.
Entry under test: [2H]c1c(O)c(C([2H])([2H])N2CCC([2H])(C(O)C([2H])([2H])CC)CC2)c2c3c(oc2c1[2H])-c1ccc(O)cc1C([2H])([2H])OC3=O (stereo not shown) . Its MIC90 was 0.0156

* * *

- test-description: Pharmacokinetics and lung tissue distribution in mice, LC-MS/MS
- Format: in vivo, Balb/C mice
- cond: mouse, in vivo, po, 100 mg/kg
Quick list: half-life per entry.
Quick reminder: number only, in h, skip the unit.

The examples below pair each entry with its known result.
CC(C)(C)c1cc(O)c(CN2CCCCC2)c2c1oc1c3ccc(O)cc3oc(=O)c12 [Compound A, reference compound] = 4.35
O=C1OCc2cc(O)ccc2-c2oc3ccc(O)c(CN4CCC(c5cccc(Cl)c5)CC4)c3c21 = 1.74
CCCC(O)C1CCN(Cc2c(O)ccc3oc4c(c23)C(=O)OCc2cc(O)ccc2-4)CC1 (stereo not shown) = 2.86

Switching to the query record.
Entry under test: `CCCC(=O)C1CCN(Cc2c(O)ccc3oc4c(c23)C(=O)OCc2cc(O)ccc2-4)CC1` . Its half-life was 7.12
